These data points were gathered from ChEMBL document CHEMBL1201862.

system: CAKI-1; experiment: NCI tumour cell line growth inhibition, 48 h
Activity calls are given as the source filed them. Rule as the data show it: active = GI50 up to about 1.1 µM and inactive = higher.

>  <compound>
c1cc(-c2cn3c(n2)SCC3)ccn1

>  <GI50>
> 100 µM (inactive)

$$$$
>  <compound>
CSc1cc(Cl)c(C)cc1S(=O)(=O)NC(=O)NNc1cccc(C(F)(F)F)n1

>  <GI50>
> 100 µM (inactive)

$$$$
>  <compound>
COC(=O)CN(CC1O[C@@H]2OC(C)(C)O[C@@H]2C1NC(C)=O)C(=O)OCc1ccccc1 (some centres undefined)

>  <GI50>
> 100 µM (inactive)

$$$$
>  <compound>
CC(C)OC(=S)Nc1ccc(Cl)c(/C=N/OC(C)(C)C)c1

>  <GI50>
15.1 µM (inactive)

$$$$
